- measurement protocol: Intranasal bioavailability in dog at 0.3 mg/kg
- Type: ADME, organism-based, Canis lupus familiaris
- experimental conditions: in vivo, inhaled or intranasal
property measured: bioavailability

• CCCN1CCO[C@H](c2cccc(O)c2)C1 = 33%

###

- measurement protocol: Solubility of the compound
- Type: physicochemical
property measured: solubility

• CCCN1CCO[C@H](c2cccc(O)c2)C1 = > 1000 mg/mL

###

- assayed target: 5-hydroxytryptamine receptor 1A (Homo sapiens, UniProt P08908)
- Sequence (P08908 whole entry): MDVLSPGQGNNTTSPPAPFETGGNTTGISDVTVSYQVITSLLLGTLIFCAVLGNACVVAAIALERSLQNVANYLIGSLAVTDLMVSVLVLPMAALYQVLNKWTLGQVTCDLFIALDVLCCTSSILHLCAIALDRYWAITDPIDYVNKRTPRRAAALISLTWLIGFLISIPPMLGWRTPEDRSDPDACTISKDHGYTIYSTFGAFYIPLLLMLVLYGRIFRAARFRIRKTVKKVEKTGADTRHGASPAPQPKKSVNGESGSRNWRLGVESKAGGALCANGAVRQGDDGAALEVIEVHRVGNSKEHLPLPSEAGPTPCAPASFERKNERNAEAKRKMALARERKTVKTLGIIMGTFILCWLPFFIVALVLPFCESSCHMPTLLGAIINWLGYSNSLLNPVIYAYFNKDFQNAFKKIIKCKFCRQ
- measurement protocol: Antagonist activity at human recombinant 5HT1A receptor
property measured: IC50

* CCCN1CCO[C@H](c2cccc(O)c2)C1 | > 20 µM

###

- measurement protocol: Clearance in human
- Assay type: ADME, organism-based
- experimental conditions: in vivo
property measured: clearance (mL/min/kg)

* CC(C)(C)NCC(O)c1cc(O)cc(O)c1 (configuration not stated) | 3.1
* CNC[C@H](O)c1cccc(O)c1 | 30

###

- assayed target: D(3) dopamine receptor (Homo sapiens, UniProt P35462)
- Sequence (P35462 whole entry): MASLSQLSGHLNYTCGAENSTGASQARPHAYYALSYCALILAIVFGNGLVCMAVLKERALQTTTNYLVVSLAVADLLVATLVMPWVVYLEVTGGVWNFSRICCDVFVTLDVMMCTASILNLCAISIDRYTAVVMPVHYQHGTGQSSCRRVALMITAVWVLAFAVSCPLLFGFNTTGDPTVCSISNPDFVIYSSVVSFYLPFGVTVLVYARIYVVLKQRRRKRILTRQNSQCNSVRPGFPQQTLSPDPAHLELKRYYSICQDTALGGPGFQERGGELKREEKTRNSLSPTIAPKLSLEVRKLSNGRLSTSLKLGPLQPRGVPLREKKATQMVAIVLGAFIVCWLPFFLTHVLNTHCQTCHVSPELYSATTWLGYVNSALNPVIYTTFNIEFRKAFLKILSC
- measurement protocol: Agonist activity at human recombinant dopamine D3 receptor expressed in CHO cells assessed as inhibition of forskolin-stimulated cAMP accumulation
- Type: functional, cell-based
property measured: EC50

* CCCN1CCOC(c2ccc(CO)c(O)c2)C1 (stereo not drawn) | > 5900 nM
* CCCN1CCOC(c2ccc(O)c(N)c2)C1 (stereo not drawn) | 40 nM
* CCCN1CCOC(c2ccc(O)cc2)C1 (stereo not drawn) | > 1000 nM
* CCCN1CCOC(c2ccc(F)c(O)c2)C1 (stereo not drawn) | 35 nM
* CCCN1CCOC(c2cccc(O)c2C)C1 (stereo not drawn) | > 1000 nM
* CCCN1CCOC(c2cccc(Cl)c2)C1 (stereo not drawn) | > 2800 nM
* CCCN1CCOC(c2cc(O)cc(C(N)=O)c2)C1 (stereo not drawn) | > 10000 nM
* C=CCN1CCOC(c2cccc(O)c2)C1 (stereo not drawn) | 1310 nM
* CCCN1CCOC(c2ccc(O)c(NS(C)(=O)=O)c2)C1 (stereo not drawn) | > 1000 nM
* CCCN1CCOC(c2cccc(-c3nnc[nH]3)c2)C1 (stereo not drawn) | > 1000 nM
* CCCN1CCOC(c2cccc(CO)c2)C1 (stereo not drawn) | > 1000 nM
* CC(=O)NCCCCN1CCOC(c2cccc(O)c2)C1 (stereo not drawn) | > 10000 nM
* CCN1CCOC(c2cccc(O)c2)C1 (stereo not drawn) | 547 nM
* CCCN1CCOC(c2cccc(S(C)(=O)=O)c2)C1 (stereo not drawn) | > 1000 nM
* CCCN1CCO[C@H](c2cc(O)cc(O)c2)C1 | 32 nM
* Oc1cccc(C2CNCCO2)c1 (stereo not drawn) | 864 nM
* COCCN1CCOC(c2cccc(O)c2)C1 (stereo not drawn) | > 3000 nM
* CCCN1CCOC(c2cccc(C(N)=O)c2)C1 (stereo not drawn) | > 1000 nM
* CCCN1CCOC(c2cccc(OC(F)(F)F)c2)C1 (stereo not drawn) | > 1000 nM
* CCCN1CCOC(c2cccc(NS(C)(=O)=O)c2)C1 (stereo not drawn) | > 1000 nM
* CCCN1CCOC(c2ccc(O)c(C#N)c2)C1 (stereo not drawn) | > 1000 nM
* CCCN1CCOC(c2cc(O)cc(C#N)c2)C1 (stereo not drawn) | > 10000 nM
* CCCN1CCOC(c2cccc(C(=O)OC)c2)C1 (stereo not drawn) | > 1000 nM
* CCCN1CCOC(c2cccc(-c3ncc[nH]3)c2)C1 (stereo not drawn) | > 1000 nM
* CCCN1CCO[C@@H](c2cccc(O)c2)C1 | > 5000 nM
* CCCN1CCOC(c2ccc(Cl)c(O)c2)C1 (stereo not drawn) | > 688 nM
* CCCN1CCOC(c2cccc(C#N)c2)C1 (stereo not drawn) | > 1000 nM
* CCCN1CCO[C@@H](c2ccc(F)c(O)c2)C1 | > 10000 nM
